ASSAY_TARGET: T1, recombinant BACE1 (BACE1 extracellular domain, R&D Systems Cat#931-AS) (UniProt P56817 22-457)
T1 construct: extracellular domain; also called BACE1 extracellular domain protein
T1 sequence (P56817 22-457): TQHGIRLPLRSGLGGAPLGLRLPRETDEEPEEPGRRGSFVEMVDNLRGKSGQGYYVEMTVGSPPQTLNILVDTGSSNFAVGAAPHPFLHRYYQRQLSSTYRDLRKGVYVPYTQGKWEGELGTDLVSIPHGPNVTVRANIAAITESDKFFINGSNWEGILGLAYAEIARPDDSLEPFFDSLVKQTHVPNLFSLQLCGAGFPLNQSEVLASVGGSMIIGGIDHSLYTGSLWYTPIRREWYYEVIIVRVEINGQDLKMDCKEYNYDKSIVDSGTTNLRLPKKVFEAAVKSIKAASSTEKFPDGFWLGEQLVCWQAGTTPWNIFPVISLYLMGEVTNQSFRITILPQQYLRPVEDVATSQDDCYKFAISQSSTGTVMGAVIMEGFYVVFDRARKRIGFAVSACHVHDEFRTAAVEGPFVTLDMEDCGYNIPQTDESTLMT
PROTOCOL_DESCRIPTION: SPR Biacore
READOUT_TYPE: Kd
// unit must come after the numeric part

Which Kd value is on record for 2H8.30 (antibody, human IgG1, V domains shown, human IgG1/kappa; also called 2H8_HCvar6 + 2H8_LCvar5) VH: EVQLQQSGAELVRPGTSVKLSCKASGYTFNNYWMHWVKQRPGQGLEWIGMIDPSDDDIKNNQKFKGKATLTVDTSSSTAYMQLISLTSEDSAVYYCARSGVALPYWGQGTLVTVSA VL: DIVMTQSQKFMSTSVGDRVSVTCKASQNVGTNVAWYQQKSGQSPKALIYSASHRYSGVPDRFTGSGSGTDFTLTISNVQSEDLAEYFCQQYNSYPYTFGGGTKLEIK ?
21.2 nM

Which Kd value is on record for 2H8.27 (antibody, human IgG1, V domains shown, human IgG1/kappa; also called 2H8_HCvar3 + 2H8_LCvar5) VH: EVQLQQSGAELVRPGTSVKLSCKASGYTFTSYWIHWVKQRPGQGLEWIGMIDPSDSYTKYNQKFKDKATLTVDTSSSTTYMHLSSLTSEDSAVYYCARSGVAFPYWGQRTLVTVSA VL: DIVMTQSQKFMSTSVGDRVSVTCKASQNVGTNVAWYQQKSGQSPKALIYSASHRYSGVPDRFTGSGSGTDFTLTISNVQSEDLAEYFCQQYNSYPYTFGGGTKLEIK ?
17 nM

Which Kd value is on record for 2H8 (antibody, human IgG1, V domains shown, chimeric, human IgG1/kappa; also called Clone 2H8; 2H8.01) VH: EVQLQQSGPELVKPGASVKLSCKASGYTFTNFWIHWLKQRPGQGLEWIGMIDPSDSYTKYNQKFKAKATLTVDTSSSTTYMHLSSLTSEDSAVYYCARSGVAFPYWGQRTLVTVSA VL: DIVMTQSQKFMSKSVGDTVSVTCKASQDVGRNVAWYQQKSGQSPKSLIYSASHRYSGVPDRFTGSGSGTDFTLTISNVQSEDLADYFCQQYNSYPYTFGGGTRLEIK ?
14.8 nM

Which Kd value is on record for 2H8.13 (antibody, human IgG1, V domains shown, human IgG1/kappa; also called 2H8_HC + 2H8_LCvar3) VH: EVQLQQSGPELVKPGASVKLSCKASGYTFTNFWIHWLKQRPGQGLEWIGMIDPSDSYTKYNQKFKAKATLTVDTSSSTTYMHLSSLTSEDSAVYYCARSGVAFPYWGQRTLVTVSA VL: DIQMTQSQKFMSTSIGDRVSVTCKASQNVGTNVAWYQQKPGQSPKSLIYSASHWYSGVPDRFTGSGSGTDFTLTISNVQSEDLAEYFCQQYNSYPYTFGGGTKLEIK ?
19.8 nM

The measured values listed here are drawn from patent US20210070881A1.
